methodDescription: GLP 28-day oral toxicity and toxicokinetics study
Format: in vivo, Sprague Dawley rats
runParameters: female, Sprague Dawley, rat, in vivo, po, 1000 mg/kg/day, plasma AUC0-24
assayEndpoint: AUC(0-t) (ng·h/mL)
Numbers only here, please. The scale is ng·h/mL.

[ask] // AUC(0-t) lookup, key: NS(=O)(=O)c1ccc(Nc2ncc3cc4n(c3n2)C2(CCCCC2)C(=O)NN4)cc1 [Compound I]
[reply] 12700

----------
methodDescription: GLP 28-day oral toxicity and toxicokinetics study
Type: in vivo, Sprague Dawley rats
runParameters: male, Sprague Dawley, rat, in vivo, po, 100 mg/kg/day, Cmax
assayEndpoint: Cmax (ng/mL)
Express your answer in ng/mL, writing the number without its unit.

[ask] Which measured Cmax value corresponds to NS(=O)(=O)c1ccc(Nc2ncc3cc4n(c3n2)C2(CCCCC2)C(=O)NN4)cc1 [Compound I] ?
[reply] 1010

----------
Test system: caspase 3/7 in H526 cells
methodDescription: CaspaseGlo-3/7 activation
Assay type: cell-based, human
runParameters: Homo sapiens, NCI-H526; 72 hours
assayEndpoint: pIC50
In simple prose, pIC50 is minus the logarithm base ten of a concentration in moles per litre.

[ask] Which pIC50 value belongs to CN[C@@H]1C[C@H]2O[C@@](C)([C@@H]1OC)n1c3ccccc3c3c4c(c5c6ccccc6n2c5c31)C(=O)NC4 ?
[reply] 8.22

----------
methodDescription: GLP 28-day oral toxicity and toxicokinetics study
Assay type: in vivo, Sprague Dawley rats
runParameters: female, Sprague Dawley, rat, in vivo, po, 1000 mg/kg/day, t1/2
assayEndpoint: half-life (h)
Kindly answer with a numeric value in h, unit omitted.

[ask] Which half-life value belongs to NS(=O)(=O)c1ccc(Nc2ncc3cc4n(c3n2)C2(CCCCC2)C(=O)NN4)cc1 ?
[reply] 5.89

----------
methodDescription: GLP 28-day oral toxicity and toxicokinetics study
Type: in vivo, Sprague Dawley rats
runParameters: male, Sprague Dawley, rat, in vivo, po, 100 mg/kg/day, t1/2
Description: One-hundred and sixty (80 per sex) Sprague Dawley rats were randomly assigned to groups and dosed once daily via oral gavage for 28 consecutive days. Nominal dose values and sampling times were used for calculations. Any concentration reported as BLQ (LLOQ<1.0 ng/ml) was set equal to zero. Toxicokinetic analyses included Cmax, Tmax, AUC0-24, t1/2, RA Cmax, and RA AUC0-24. […]
assayEndpoint: half-life (h)
Write the value in h as a bare number.

[ask] Bench note: what half-life did NS(=O)(=O)c1ccc(Nc2ncc3cc4n(c3n2)C2(CCCCC2)C(=O)NN4)cc1 [Compound I] show?
[reply] 3.27

----------
methodDescription: GLP 28-day oral toxicity and toxicokinetics study
Assay type: in vivo, Sprague Dawley rats
runParameters: both sexes, Sprague Dawley, rat, in vivo, oral; highest dose level tested; read-out: 28-day maximum tolerated dose (MTD) (also NOAEL)
assayEndpoint: MTD at 28 days (mg/kg/day)
Enter your answer as a number in mg/kg/day; do not include the unit.

[ask] Using the record for NS(=O)(=O)c1ccc(Nc2ncc3cc4n(c3n2)C2(CCCCC2)C(=O)NN4)cc1 , report its MTD at 28 days.
[reply] 1000

----------
methodDescription: Nonclinical pharmacokinetics (IV and PO)
runParameters: mouse, in vivo, po; mice; read-out: Tmax after PO dosing
Protocol: Nonclinical PK studies were conducted for single dose of Compound I in rats, mice, and dogs, and for repeated doses of Compound I in rats and dogs. […] The relationship between dose level and systemic exposure was generally similar in male and female animals.
assayEndpoint: Tmax

[ask] For NS(=O)(=O)c1ccc(Nc2ncc3cc4n(c3n2)C2(CCCCC2)C(=O)NN4)cc1 , what is its reported Tmax?
[reply] 0.25 to 4 h

----------
methodDescription: GLP 28-day oral toxicity and toxicokinetics study
Assay type: in vivo, Beagle dogs
runParameters: male, Beagle, dog, in vivo, po, 100 mg/kg/day, AUC0-24
assayEndpoint: AUC(0-t)
# output: numeric value plus its unit

[ask] Suppose we examine the compound NS(=O)(=O)c1ccc(Nc2ncc3cc4n(c3n2)C2(CCCCC2)C(=O)NN4)cc1 ; what AUC(0-t) value has been reported?
[reply] 6210 ng·h/mL

----------
methodDescription: GLP 28-day oral toxicity and toxicokinetics study
Format: in vivo, Beagle dogs
runParameters: female, Beagle, dog, in vivo, po, plasma AUC0-24
assayEndpoint: AUC(0-t) (ng·h/mL)
Kindly provide the numeric value in ng·h/mL only, without the unit symbol.

[ask] Dear colleague, I am looking for the recorded AUC(0-t) of the following molecule: NS(=O)(=O)c1ccc(Nc2ncc3cc4n(c3n2)C2(CCCCC2)C(=O)NN4)cc1 [Compound I]
[reply] 2600

----------
methodDescription: Approximate solvent solubility of free base
Type: physicochemical
runParameters: dimethylsulfoxide, organic solvent or mixture, thermodynamic from solid; read-out: Solubility
assayEndpoint: Solubility (mg/mL)
Could you give me the number in mg/mL? Just the number is fine.

[ask] Request the reported Solubility associated with NS(=O)(=O)c1ccc(Nc2ncc3cc4n(c3n2)C2(CCCCC2)C(=O)NN4)cc1
[reply] 88

----------
methodDescription: Nonclinical pharmacokinetics (IV and PO)
runParameters: mouse, in vivo, iv; mice; read-out: Tmax after IV dosing
assayEndpoint: Tmax

[ask] Item NS(=O)(=O)c1ccc(Nc2ncc3cc4n(c3n2)C2(CCCCC2)C(=O)NN4)cc1 has what recorded Tmax?
[reply] ≤ 15 min

----------
methodDescription: GLP 28-day oral toxicity and toxicokinetics study
Format: in vivo, Sprague Dawley rats
runParameters: male, Sprague Dawley, rat, in vivo, po, 1000 mg/kg/day, plasma Cmax
assayEndpoint: Cmax (ng/mL)
Field format: number, assumed ng/mL, no unit text.

[ask] Returns the measured Cmax for the input compound. Input: NS(=O)(=O)c1ccc(Nc2ncc3cc4n(c3n2)C2(CCCCC2)C(=O)NN4)cc1
[reply] 647

----------
assayedSystem: CYP2C8 (Homo sapiens, UniProt P10632)
Construct: human liver microsomes were incubated in the appropriate isoform-specific probe substrate; from tissue; host or cells: human liver microsomes
Sequence (P10632 whole entry, canonical isoform): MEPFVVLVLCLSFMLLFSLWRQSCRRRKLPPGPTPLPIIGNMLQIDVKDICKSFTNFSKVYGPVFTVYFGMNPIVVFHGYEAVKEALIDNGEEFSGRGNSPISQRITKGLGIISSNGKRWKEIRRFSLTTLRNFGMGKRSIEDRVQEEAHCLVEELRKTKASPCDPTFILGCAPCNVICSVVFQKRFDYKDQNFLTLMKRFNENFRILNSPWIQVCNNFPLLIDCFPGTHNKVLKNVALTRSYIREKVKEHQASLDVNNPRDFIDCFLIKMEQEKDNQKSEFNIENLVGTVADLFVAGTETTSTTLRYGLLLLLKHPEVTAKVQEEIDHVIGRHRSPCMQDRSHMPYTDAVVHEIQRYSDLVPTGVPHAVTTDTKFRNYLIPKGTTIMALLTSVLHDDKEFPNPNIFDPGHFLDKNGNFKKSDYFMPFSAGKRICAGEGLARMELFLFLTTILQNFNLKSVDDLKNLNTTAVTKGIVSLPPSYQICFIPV
methodDescription: CYP inhibition in human liver microsomes
Assay type: in vitro ADME
runParameters: CYP2C8, substrate Amodiaquine, human liver microsomes
assayEndpoint: IC50

[ask] Return reported IC50; argument: NS(=O)(=O)c1ccc(Nc2ncc3cc4n(c3n2)C2(CCCCC2)C(=O)NN4)cc1 [Compound I]
[reply] > 25 µM

----------
methodDescription: GLP 28-day oral toxicity and toxicokinetics study
Format: in vivo, Beagle dogs
runParameters: male, Beagle, dog, in vivo, po, 250 mg/kg, plasma AUC0-24
assayEndpoint: AUC(0-t) (ng·h/mL)
Write the answer as a number in ng·h/mL, unit excluded.

[ask] // AUC(0-t) lookup, key: NS(=O)(=O)c1ccc(Nc2ncc3cc4n(c3n2)C2(CCCCC2)C(=O)NN4)cc1
[reply] 18800

----------
assayedSystem: human OCT2 (Homo sapiens, UniProt O15244)
Construct: expressed in transfected cells; host or cells: HEK293
Sequence (O15244 1-555): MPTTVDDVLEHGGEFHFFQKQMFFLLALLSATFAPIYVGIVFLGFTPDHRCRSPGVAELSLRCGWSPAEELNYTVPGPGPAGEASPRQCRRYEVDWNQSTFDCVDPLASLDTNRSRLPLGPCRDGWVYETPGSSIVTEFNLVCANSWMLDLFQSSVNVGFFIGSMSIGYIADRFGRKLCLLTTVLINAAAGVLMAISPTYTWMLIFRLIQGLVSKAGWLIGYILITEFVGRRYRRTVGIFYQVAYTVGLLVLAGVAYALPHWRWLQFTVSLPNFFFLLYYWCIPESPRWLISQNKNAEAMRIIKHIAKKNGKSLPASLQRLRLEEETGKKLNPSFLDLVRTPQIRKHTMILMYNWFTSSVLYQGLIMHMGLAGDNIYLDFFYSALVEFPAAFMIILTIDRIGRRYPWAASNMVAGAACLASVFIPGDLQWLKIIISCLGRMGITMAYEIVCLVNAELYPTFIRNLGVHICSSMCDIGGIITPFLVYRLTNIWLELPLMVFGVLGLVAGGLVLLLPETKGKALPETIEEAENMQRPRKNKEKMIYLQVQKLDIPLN
methodDescription: SLC transporter inhibition in HEK293 cells
Format: in vitro ADME
runParameters: read-out: OCT2 IC50
assayEndpoint: IC50 (µM)
The response must be a number in µM with no trailing unit.

[ask] GET /values?readout=IC50&item= NS(=O)(=O)c1ccc(Nc2ncc3cc4n(c3n2)C2(CCCCC2)C(=O)NN4)cc1
[reply] 17.1

----------
assayedSystem: MATE1 (Homo sapiens, UniProt Q96FL8)
Sequence (Q96FL8 1-570): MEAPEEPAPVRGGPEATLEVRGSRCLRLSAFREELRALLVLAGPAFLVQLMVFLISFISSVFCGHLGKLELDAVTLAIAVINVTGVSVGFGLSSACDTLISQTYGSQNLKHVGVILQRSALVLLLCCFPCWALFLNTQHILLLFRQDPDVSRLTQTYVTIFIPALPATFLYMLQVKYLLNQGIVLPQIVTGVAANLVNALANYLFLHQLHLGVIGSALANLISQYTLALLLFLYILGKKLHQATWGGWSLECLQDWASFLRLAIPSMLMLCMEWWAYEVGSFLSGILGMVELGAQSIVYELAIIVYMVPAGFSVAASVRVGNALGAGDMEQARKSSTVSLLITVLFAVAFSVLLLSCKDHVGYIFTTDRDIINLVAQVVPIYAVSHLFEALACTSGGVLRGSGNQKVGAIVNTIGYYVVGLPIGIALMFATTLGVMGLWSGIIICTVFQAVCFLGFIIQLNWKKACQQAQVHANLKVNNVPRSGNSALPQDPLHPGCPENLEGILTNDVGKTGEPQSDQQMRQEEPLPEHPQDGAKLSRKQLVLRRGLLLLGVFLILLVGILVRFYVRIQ
methodDescription: SLC transporter inhibition in HEK293 cells
runParameters: human, HEK293 cells expressing MATE1, probe metformin (10 μM)
assayEndpoint: inhibition at 20 μM (%)
Form entry: value (%) — number only.

[ask] Look up inhibition at 20 μM for this compound: NS(=O)(=O)c1ccc(Nc2ncc3cc4n(c3n2)C2(CCCCC2)C(=O)NN4)cc1 [Compound I]
[reply] 62
